System: Escherichia coli
TEST_SUMMARY: Antibacterial activity against Escherichia coli ATCC25922 incubated for 16 to 20 hrs by broth microdilution method
Assay type: functional
RUN_PARAMETERS: time 16-20 hrs
MEASURED_PARAMETER: MIC (mg/L)

Example results:
CCCN(C)C[C@H]1/C=C(C)/C=C/C(=O)[C@H](C)C[C@H](CCNCc2cn(-c3cnc4ccccc4c3)nn2)[C@H](O[C@@H]2O[C@H](C)[C@@H](O)[C@H](N(C)C)[C@H]2O)[C@@H](C)[C@H](O)CC(=O)O[C@@H]1CC: 4
CCCCN(CCCC)C[C@H]1/C=C(C)/C=C/C(=O)[C@H](C)C[C@H](CCN(Cc2cn(-c3cnc4ccccc4c3)nn2)c2ccccc2)[C@H](O[C@@H]2O[C@H](C)[C@@H](O)[C@H](N(C)C)[C@H]2O)[C@@H](C)[C@H](O)CC(=O)O[C@@H]1CC: 32

P = CC[C@H]1OC(=O)C[C@@H](O)[C@H](C)[C@@H](O[C@@H]2O[C@H](C)[C@@H](O)[C@H](N(C)C)[C@H]2O)[C@@H](CCN(C)Cc2cn(-c3cnc4ccccc4c3)nn2)C[C@@H](C)C(=O)/C=C/C(C)=C/[C@@H]1CNCc1ccc(F)cc1
Q = CC[C@H]1OC(=O)C[C@@H](O)[C@H](C)[C@@H](O[C@@H]2O[C@H](C)[C@@H](O)[C@H](N(C)C)[C@H]2O)[C@@H](CCNCc2cn(-c3cnc4ccccc4c3)nn2)C[C@@H](C)C(=O)/C=C/C(C)=C/[C@@H]1CN(CC)Cc1ccccc1
Could you please tell me which of these two has the higher MIC: P or Q ? Lab log: write the label of the selected item as the result.
P
(P: 8 mg/L, Q: 1 mg/L)

====

Tested on: Staphylococcus aureus
TEST_SUMMARY: Antibacterial activity against Staphylococcus aureus ATCC25923 incubated for 16 to 20 hrs by broth microdilution method
Type: functional
RUN_PARAMETERS: time 16-20 hrs
MEASURED_PARAMETER: MIC (µg/mL)

CCCN(C)C[C@H]1/C=C(C)/C=C/C(=O)[C@H](C)C[C@H](CCNCc2cn(-c3cnc4ccccc4c3)nn2)[C@H](O[C@@H]2O[C@H](C)[C@@H](O)[C@H](N(C)C)[C@H]2O)[C@@H](C)[C@H](O)CC(=O)O[C@@H]1CC: 0.5
CC[C@H]1OC(=O)C[C@@H](O)[C@H](C)[C@@H](O[C@@H]2O[C@H](C)[C@@H](O)[C@H](N(C)C)[C@H]2O)[C@@H](CCN(Cc2cn(-c3cnc4ccccc4c3)nn2)c2ccccc2)C[C@@H](C)C(=O)/C=C/C(C)=C/[C@@H]1CN(C)CC: 0.5
CC[C@H]1OC(=O)C[C@@H](O)[C@H](C)[C@@H](O[C@@H]2O[C@H](C)[C@@H](O)[C@H](N(C)C)[C@H]2O)[C@@H](CCNCc2cn(-c3cnc4ccccc4c3)nn2)C[C@@H](C)C(=O)/C=C/C(C)=C/[C@@H]1CNCc1ccc(C)cc1: 0.5

====

Tested on: Escherichia coli
TEST_SUMMARY: Antibacterial activity against Escherichia coli ATCC25922 incubated for 16 to 20 hrs by broth microdilution method
Assay type: functional
RUN_PARAMETERS: time 16-20 hrs
MEASURED_PARAMETER: MIC (µg/mL)

CC[C@H]1OC(=O)C[C@@H](O)[C@H](C)[C@@H](O[C@@H]2O[C@H](C)[C@@H](O)[C@H](N(C)C)[C@H]2O)[C@@H](CCNCc2cn(-c3cnc4ccccc4c3)nn2)C[C@@H](C)C(=O)/C=C/C(C)=C/[C@@H]1CN(C)C1CCCCC1: 2
CC[C@H]1OC(=O)C[C@@H](O)[C@H](C)[C@@H](O[C@@H]2O[C@H](C)[C@@H](O)[C@H](N(C)C)[C@H]2O)[C@@H](CCNCc2cn(-c3cnc4ccccc4c3)nn2)C[C@@H](C)C(=O)/C=C/C(C)=C/[C@@H]1CN(CC)CC: 2

a = CC[C@H]1OC(=O)C[C@@H](O)[C@H](C)[C@@H](O[C@@H]2O[C@H](C)[C@@H](O)[C@H](N(C)C)[C@H]2O)[C@@H](CCNCc2cn(-c3cnc4ccccc4c3)nn2)C[C@@H](C)C(=O)/C=C/C(C)=C/[C@@H]1CNCc1ccc(Br)cc1
b = CC[C@H]1OC(=O)C[C@@H](O)[C@H](C)[C@@H](O[C@@H]2O[C@H](C)[C@@H](O)[C@H](N(C)C)[C@H]2O)[C@@H](CCN(C)Cc2cn(-c3cnc4ccccc4c3)nn2)C[C@@H](C)C(=O)/C=C/C(C)=C/[C@@H]1CNc1ccc(I)cc1
Could you please tell me which of these two has the higher MIC: a or b ? Lab log: write the label of the selected item as the result.
b
